Across several publications, the following pKi results were reported for Tyrosine-protein kinase JAK3 (Homo sapiens).
pKi: −log10 of the molar value.

Nc1nn2cc(C(=O)NC3CCCNC3)cnc2c1-c1ccccn1 (centres unmarked) :: < 5.30

# return pKi for each item in the list
1. Nc1nn2cc(-c3ccncn3)cnc2c1C(=O)N(CCO)Cc1ccccc1
2. Nc1nn2cc(CCCN3CCSCC3)cnc2c1-c1ccccn1
3. COC(=O)C1CC=CCC1C(=O)Nc1nc(-c2ncnc3[nH]ccc23)cs1 (centres unmarked)
4. CC(C)[C@H](C(=O)NCC(F)(F)F)N(C)c1ccnc(-c2c[nH]c3ncncc23)n1
5. O=C(c1cc(-c2ncnc3[nH]ccc23)co1)N(CCC(F)(F)F)CC1CC1

Found:
1. < 5.30
2. < 5.30
3. 6.30 to 7.00
4. > 6.30
5. 6.30 to 7.00

* * *

pKi: −log10 of the molar value.
Across several publications, the following pKi results were reported for Tyrosine-protein kinase JAK3 (Homo sapiens, UniProt P52333).

C[C@@H](c1ccccc1)N(C)c1ccnc(-c2c[nH]c3ncncc23)n1 :: > 6.30

# return pKi for each item in the list
1. COc1cc2c(cc1OC)CN(c1cc(-c3c(N)nn4cccnc34)ncn1)CC2
2. Cc1cnc2[nH]cc(-c3oncc3-c3cccc(F)c3F)c2c1

Found:
1. 6.30 to 7.00
2. 6.00 to 6.70

# return pKi for each item in the list
1. Nc1nn2cccnc2c1-c1cc(N2CCc3ccccc3C2)ncn1
2. CN(C)c1ccnc2[nH]cc(-c3oncc3-c3cccc(F)c3F)c12
3. CNCCCN(C)Cc1ccc(-c2cnc3c(-c4ccccn4)c(N)nn3c2)cc1
4. CC(C)N1CCN(c2ccc(-c3cnc4c(-c5ccccn5)c(N)nn4c3)cc2)CC1
5. Cc1cnc2c(-c3cc(N4CCC(S(C)(=O)=O)C4)ncn3)c(N)nn2c1 (stereo not drawn)

Found:
1. 6.30 to 7.00
2. 6.00 to 6.70
3. 5.30 to 6.30
4. 5.30 to 6.30
5. > 6.30

Form field, pKi with Tyrosine-protein kinase JAK3 (Homo sapiens, UniProt P52333), item O=C(Nc1nc(-c2ncnc3[nH]ccc23)cs1)C1CCOCC1 : > 7.00

* * *

Across several publications, the following Ki results were reported for UniProt:P52333.

Check out these entries, answers already filled in.
C=CC(=O)c1c[nH]c2ncnc(-c3ccoc3)c12 :: 100 to 500 nM
C[C@@H](c1ccccc1)N(C)c1cc(-c2c(N)nn3cccnc23)ncn1 :: 100 to 500 nM
CC(C)[C@@H](Nc1nc(-c2ccc3nccnc3c2)ncc1F)C(=O)NCC(F)(F)F :: 1000 to 10000 nM
Fc1cccc(C(F)(F)F)c1C1Nc2ccccc2-c2ccnc3[nH]cc1c23 (centres unmarked) :: 250 to 2500 nM

# return Ki for each item in the list
1. CCN1CCN(C(=O)c2cccc(-c3cnc4c(-c5ccccn5)c(N)nn4c3)n2)CC1
2. Cc1cnc2c(-c3cc(NC4CCCCC4)ncn3)c(N)nn2c1
3. Nc1nn2cc(-c3ccncn3)cnc2c1C(=O)NCc1ccc(F)cc1F
4. Clc1cccc(-c2cnoc2-c2c[nH]c3ncc(-c4cccnc4)cc23)c1Cl
5. O=[N+]([O-])c1cc(O)ccc1C1Nc2ccccc2-c2ccnc3[nH]cc1c23 (centres unmarked)
6. CC(C)Oc1nc(N[C@@H](C)c2ccc(F)cc2F)cc(-c2c(N)nn3cccnc23)n1
7. O=C(c1cc(-c2ncnc3[nH]ccc23)c[nH]1)N(CC1CC1)CC(F)(F)F

Found:
["> 5000 nM", "500 to 5000 nM", "> 5000 nM", "< 200 nM", "≤ 250 nM", "100 to 500 nM", "< 100 nM"]

# return Ki for each item in the list
1. Fc1cccc(F)c1C1Nc2ccccc2-c2ncnc3[nH]cc1c23 (centres unmarked)
2. CC1CC1COc1nc(N[C@@H](C)c2ccc(F)cc2F)cc(-c2cnn3cccnc23)n1 (some centres unmarked)
3. O=C(c1ccc(-c2ncnc3[nH]ccc23)o1)N(CCC(F)(F)F)CC1CCC1
4. CC(C)CN(CCC#N)C(=O)c1ccc(-c2ncnc3[nH]ccc23)o1
5. O=C(c1cc(-c2ncnc3[nH]ccc23)co1)N(CCC(F)(F)F)CC1CCC1

Found:
250 to 2500 nM
100 to 500 nM
< 100 nM
< 100 nM
100 to 500 nM

Query CNCc1ccc(-c2cnc3c(-c4ccccn4)c(N)nn3c2)cc1 yields Ki of 500 to 5000 nM

* * *

Across several publications, the following Ki results were reported for Tyrosine-protein kinase JAK3 (Homo sapiens, UniProt P52333).

O=C1COc2ccc(-c3ccnc(Nc4cccc(Cl)c4)n3)cc2N1Cc1cccnc1 :: < 5000 nM
C[C@@H]1CN(c2ccc(-c3cnc4[nH]cc(-c5nncn5-c5cccc(F)c5F)c4c3)cn2)C[C@H](C)N1 :: 1000 to 12500 nM
Fc1cccc(F)c1C1Nc2ncccc2-c2ccnc3[nH]cc1c23 (centres unmarked) :: 250 to 2500 nM
Cc1cnc2c(-c3cc(NC(C)C)ncn3)c(N)nn2c1 :: 500 to 5000 nM
CN(C)c1ccnc(-c2cnc3[nH]cc(-c4oncc4-c4cccc(F)c4F)c3c2)c1 :: 1000 to 12500 nM
O=C(NCC(F)(F)F)C1(Nc2ccnc(-c3c[nH]c4ncncc34)n2)CCC1 :: < 500 nM
C=CCN(CC=C)C(=O)c1cc(-c2ncnc3[nH]ccc23)co1 :: 100 to 500 nM
CC(=O)Nc1cccc(-c2cnc3[nH]cc(-c4oncc4-c4cccc(F)c4F)c3c2)c1 :: < 200 nM
CC(=O)Nc1ccc(-c2cnc3[nH]cc(-c4oncc4-c4cccc(F)c4F)c3c2)cc1 :: < 200 nM
Cc1cnc2c(-c3cc(N4CCC[C@H]4CN4CCCC4)ncn3)c(N)nn2c1 :: > 5000 nM

# return Ki for each item in the list
1. C[C@@H](Nc1ccnc(-c2c[nH]c3ncncc23)n1)C(=O)NCC(F)(F)F
2. CCC[C@H](Nc1cc(-c2c(N)nn3cccnc23)nc(N2CCOCC2)n1)c1ccc(F)cc1
3. CC[C@H](Nc1cc(-n2nc(Nc3ccc(F)cc3)nc2N)ncn1)C(=O)NCC(F)(F)F
4. Oc1ccc(C2Nc3ccccc3-c3ccnc4[nH]cc2c34)cc1I (centres unmarked)
5. CC1CC1COc1nc(N[C@@H](C)c2ccc(F)cc2)cc(-c2c(N)nn3cccnc23)n1 (some centres unmarked)
6. FC(F)(F)Oc1ccc(C2Nc3ccccc3-c3ccnc4[nH]cc2c34)cc1 (centres unmarked)

Found:
["< 500 nM", "100 to 500 nM", "≤ 1000 nM", "≤ 250 nM", "100 to 500 nM", "250 to 2500 nM"]

Query Nc1nn2cccnc2c1-c1cc(NCc2ccsc2Br)ncn1 yields Ki of 10 to 100 nM

* * *

Across several publications, the following Ki results were reported for Tyrosine-protein kinase JAK3 (Homo sapiens, UniProt P52333).

Check out these entries, answers already filled in.
O=C(c1cc(-c2ncnc3[nH]cc(Cl)c23)c[nH]1)N(CC1CCC1)CC(F)(F)F :: < 100 nM
CC(=O)N1[C@H](C)CN(c2cc(-n3cnc(Nc4ccc(N5CCN(S(=O)(=O)c6ccc(C)cc6)CC5)cc4)n3)ccn2)C[C@@H]1C :: < 10 nM
CCCOc1nc(N[C@@H](C)c2ccc(F)cc2)cc(-c2c(N)nn3cccnc23)n1 :: 10 to 100 nM

Query Cc1cc(C2Nc3ccccc3-c3ccnc4[nH]cc2c34)sc1C (stereo not shown) yields Ki of 250 to 2500 nM

* * *

Across several publications, the following Ki results were reported for UniProt P52333.

Nc1cccc(Nc2nccc(-c3cccc(NC(=O)c4cccs4)c3)n2)c1 :: ≤ 1 µM

# return Ki for each item in the list
1. COCCN(C)C(=O)c1cc(-c2ncnc3[nH]ccc23)cn1C
2. CN1C(=O)COc2ccc(-c3ccnc(Nc4cccc(S(N)(=O)=O)c4)n3)cc21
3. CC(=O)N1[C@H](C)CN(c2cc(-n3cnc(Nc4ccc(NC(=O)NC(C)C)cc4)n3)ccn2)C[C@@H]1C

Found:
1. 0.5 to 5 µM
2. < 1 µM
3. < 0.01 µM

* * *

pKi: −log10 of the molar value.
Across several publications, the following pKi results were reported for Tyrosine-protein kinase JAK3 (Homo sapiens, UniProt P52333).

O=C(c1cnc2[nH]cc(-c3oncc3-c3cccc(F)c3F)c2c1)N1CCCC1 :: 4.90 to 6.00
O=C(O)c1cc(C2Nc3ccccc3-c3ccnc4[nH]cc2c34)ccc1O (stereo not shown) :: < 5.60

# return pKi for each item in the list
1. CCCOC(=O)Nc1ccc(Nc2ncn(-c3ccnc(N4C[C@@H](C)N(C(C)=O)[C@@H](C)C4)c3)n2)cc1
2. CNCCCN(C)C(=O)c1ccc(-c2cnc3c(-c4ccccn4)c(N)nn3c2)cc1
3. Nc1nn2cc(-c3ccc(N4CCC(N)CC4)nc3)cnc2c1-c1ccccn1
4. COc1ccc(C(=O)Nc2nc(-c3ncnc4[nH]ccc34)cs2)cc1
5. OCc1ccc(C2Nc3ccccc3-c3ccnc4[nH]cc2c34)cc1 (stereo not shown)
6. c1ccc(Nc2ncn(-c3ccnc(NC4CCCCC4)c3)n2)cc1
7. CN1C(=O)COc2ccc(-c3ccnc(Nc4ccccc4)n3)cc21

Found:
6.00 to 8.00
5.30 to 6.30
< 5.30
6.30 to 7.00
≥ 6.60
6.00 to 8.00
> 6.00
